Where do the numbers come from? From paper PMC9838217.

tgt: SALL4 ZFC4 R900W (HT-SELEX) (Mus musculus, UniProt Q8BX22 870-940, R900W)
Sequence: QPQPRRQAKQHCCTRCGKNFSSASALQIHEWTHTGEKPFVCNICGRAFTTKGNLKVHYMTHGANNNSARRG
experimental-details: HT-SELEX; high values mean tight binding
conditions: protein: recombinant; vector His6-GST; dsDNA, one strand shown
Please use the following binding signal ranges when assigning a class: class A (below 0.1 fold-change vs cycle 0), class B (0.1 fold-change vs cycle 0 to below 0.8 fold-change vs cycle 0), class C (0.8 fold-change vs cycle 0 or more)

sequence-content	qualitative-label
AGGCCG	class B
GCCGGA	class B
TGCACA	class B
CCGGGC	class A
AGGACT	class C
ACACCA	class C
GCGCAC	class A
ATAACC	class C
CTGTCC	class B
CATTAG	class C
